biological target: mTOR (Homo sapiens); construct: endogenous in cells; host or cells: Jurkat, clone E6-1 (ATCC TIB-152) cell lysate; assay: mTOR kinobeads assay (competitive binding in Jurkat cell lysate, immunodetection); details: kinobeads assay, Table 6; read-out: Inhibition values (IC50) mTOR
experimental.endpoint: IC50

Field: example entries. Status: answers known.
Q) For the molecule "CC(=O)N(C)CCC(=O)N1Cc2nc(-c3ccc(NC(=O)NC4CC4)cc3)nc(N3CCOC[C@@H]3C)c2C1" , give its reported IC50.
A) < 100 nM

Q) Indicate its recorded IC50; the molecule in question is "CCNC(=O)Nc1ccc(-c2nc3c(c(N4CCOC[C@@H]4C)n2)CN(C(=O)C2CCN(C(C)=O)CC2)C3)cc1F"
A) 100 to 1000 nM

Q) Answer with the recorded IC50 of "CCNC(=O)Nc1ccc(-c2nc3c(c(N4CCOC[C@@H]4C)n2)CN(C2CCN(C(C)=O)CC2)C3)cc1F" only.
A) 100 to 1000 nM

Q) Input "CCOC(=O)N1Cc2nc(-c3ccc(NC(=O)NCC(N)=O)cc3)nc(N3CCOC[C@@H]3C)c2C1" , output reported IC50.
A) 100 to 1000 nM

Q) Specify measured IC50 for "CCNC(=O)Nc1ccc(-c2nc3c(c(N4CCOC[C@@H]4C)n2)CN(C(=O)OCC)CC3)cc1" .
A) 100 to 1000 nM

---
Q) Retrieve IC50 measured for "C[C@H]1COCCN1c1nc(-c2ccc(NC(=O)Nc3ccn(C)n3)cc2)nc2c1CN(C)C2" and print it.
A) 100 to 1000 nM

Q) Find the measured IC50 of "CCNC(=O)Nc1ccc(-c2nc3c(c(N4CCOCC4)n2)CCN(C(=O)NCC)C3)cc1" and report it.
A) 100 to 1000 nM

Q) Using known records, supply IC50 for "C[C@H]1COCCN1c1nc(-c2ccc(NC(=O)NC3CC3)cc2)nc2c1CCN(C(=O)C1CC1)C2"
A) < 100 nM

Q) Name the recorded IC50 of the item "CCNC(=O)Nc1ccc(-c2nc3c(c(N4CCOC[C@@H]4C)n2)CCN(C(=O)c2ccc(F)cc2)C3)cc1" in your answer.
A) 100 to 1000 nM

----------
biological target: PI3 Kbeta (PI3 Kb) (Homo sapiens, UniProt P42338); construct: endogenous in cells; host or cells: cell lysate; assay: kinobeads assay, PI3Kbeta; type: binding; conditions: kinobeads assay, Table 6; read-out: Inhibition values (IC50) PI3Kb
Sequence (P42338 whole entry): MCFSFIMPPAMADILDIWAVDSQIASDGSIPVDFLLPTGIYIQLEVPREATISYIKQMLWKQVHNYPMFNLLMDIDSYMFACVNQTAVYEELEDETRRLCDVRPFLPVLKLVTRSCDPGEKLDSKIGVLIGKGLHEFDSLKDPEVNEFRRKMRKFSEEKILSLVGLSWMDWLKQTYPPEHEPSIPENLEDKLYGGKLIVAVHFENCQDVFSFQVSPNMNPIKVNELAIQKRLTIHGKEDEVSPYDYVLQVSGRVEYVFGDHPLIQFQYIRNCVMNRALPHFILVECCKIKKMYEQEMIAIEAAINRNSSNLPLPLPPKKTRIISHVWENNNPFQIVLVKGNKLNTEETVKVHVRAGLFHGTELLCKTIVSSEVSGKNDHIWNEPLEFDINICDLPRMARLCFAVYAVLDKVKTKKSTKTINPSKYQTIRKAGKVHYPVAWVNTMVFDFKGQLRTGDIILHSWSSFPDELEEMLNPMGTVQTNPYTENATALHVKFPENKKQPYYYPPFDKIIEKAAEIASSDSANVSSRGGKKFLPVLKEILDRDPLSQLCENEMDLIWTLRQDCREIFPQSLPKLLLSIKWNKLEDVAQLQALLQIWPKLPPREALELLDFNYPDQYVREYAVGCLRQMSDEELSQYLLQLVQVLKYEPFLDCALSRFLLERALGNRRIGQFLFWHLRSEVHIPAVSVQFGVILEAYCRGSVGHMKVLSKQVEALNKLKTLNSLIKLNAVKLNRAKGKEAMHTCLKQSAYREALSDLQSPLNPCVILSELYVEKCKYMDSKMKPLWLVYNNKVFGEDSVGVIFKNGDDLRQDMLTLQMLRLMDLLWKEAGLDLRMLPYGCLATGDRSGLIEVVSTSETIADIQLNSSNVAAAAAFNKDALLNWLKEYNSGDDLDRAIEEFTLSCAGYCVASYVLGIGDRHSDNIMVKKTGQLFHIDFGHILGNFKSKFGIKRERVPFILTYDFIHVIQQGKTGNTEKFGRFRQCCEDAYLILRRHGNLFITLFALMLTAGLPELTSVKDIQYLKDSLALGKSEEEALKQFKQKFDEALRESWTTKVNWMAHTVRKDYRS
Sequence (P27986 whole entry partner): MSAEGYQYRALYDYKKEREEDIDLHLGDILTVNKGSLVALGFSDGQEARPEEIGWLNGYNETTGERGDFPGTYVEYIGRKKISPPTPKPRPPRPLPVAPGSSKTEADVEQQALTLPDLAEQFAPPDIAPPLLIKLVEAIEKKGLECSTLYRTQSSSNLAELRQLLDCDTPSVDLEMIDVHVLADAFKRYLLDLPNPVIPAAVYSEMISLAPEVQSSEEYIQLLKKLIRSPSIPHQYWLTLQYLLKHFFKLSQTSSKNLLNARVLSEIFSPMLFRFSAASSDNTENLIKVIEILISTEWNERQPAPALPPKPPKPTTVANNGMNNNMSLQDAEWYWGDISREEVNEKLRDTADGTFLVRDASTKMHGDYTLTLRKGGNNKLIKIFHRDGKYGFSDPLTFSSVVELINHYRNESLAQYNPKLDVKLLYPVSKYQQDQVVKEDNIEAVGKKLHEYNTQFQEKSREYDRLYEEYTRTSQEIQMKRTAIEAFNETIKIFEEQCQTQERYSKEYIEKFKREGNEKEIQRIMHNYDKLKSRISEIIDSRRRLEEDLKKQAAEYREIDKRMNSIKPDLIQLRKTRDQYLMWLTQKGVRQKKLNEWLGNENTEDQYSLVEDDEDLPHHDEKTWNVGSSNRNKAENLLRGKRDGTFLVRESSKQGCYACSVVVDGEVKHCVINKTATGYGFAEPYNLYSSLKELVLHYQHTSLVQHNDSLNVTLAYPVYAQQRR
Examples of molecules with documented IC50 follow.

Q) Give the measured IC50 for "CCOC(=O)N1Cc2nc(-c3ccc(NC(=O)Nc4cccc(O)c4)cc3)nc(N3CCOC[C@@H]3C)c2C1"
A) > 10 µM

Q) Give the measured IC50 for "CCOC(=O)N1Cc2nc(-c3ccc(NC(=O)NCCNC(C)=O)cc3)nc(N3CCOC[C@@H]3C)c2C1"
A) > 10 µM

Q) Please supply the value of reported IC50 for the item "CCNC(=O)Nc1ccc(-c2nc3c(c(N4CCOC[C@@H]4C)n2)CCN(CC)C3)cc1"
A) 1 to 10 µM

Q) Consider the molecule CCNC(=O)Nc1ccc(-c2nc3c(c(N4CCOC[C@@H]4C)n2)CCN(CC(C)C)C3)cc1.O=CO [Example 76, formate] . State its measured IC50.
A) > 10 µM

Q) Tell me IC50 reported for "CCNC(=O)Nc1ccc(-c2nc3c(c(N4CCOC[C@@H]4C)n2)CN(Cc2ccc(F)cc2)C3)cc1"
A) > 10 µM

Q) Please look at this molecule and report its IC50: "CCNC(=O)Nc1ncc(-c2nc3c(c(N4CCOC[C@@H]4C)n2)CCN(C)C3)s1"
A) > 10 µM

Q) Fill in IC50 for record "Cc1cc(NC(=O)Nc2ccc(-c3nc4c(c(N5CCOC[C@@H]5C)n3)CN(C)C4)cc2)no1"
A) > 10 µM

Q) State its IC50: "CCNC(=O)Nc1ccc(-c2nc3c(c(N4CCOC[C@@H]4C)n2)CN(C(=O)C2CC2)C3)cc1"
A) > 10 µM

Further cases:
Q) # return recorded IC50 for input "COC(=O)N1CCc2c(nc(-c3ccc(NC(=O)NC4CC4)cc3)nc2N2CCOC[C@@H]2C)C1"
A) > 10 µM

Q) Quick one: give measured IC50 for "CCNC(=O)Nc1ccc(-c2nc3c(c(N4CCOC[C@@H]4C)n2)CCN(C(=O)NCC)C3)cc1"
A) > 10 µM

Q) Look up and state reported IC50 for "CCNC(=O)Nc1ccc(-c2nc3c(c(N4CCOCC4)n2)CCN(C(=O)C(C)(C)C)C3)cc1"
A) > 10 µM

Q) Identify IC50 associated with the molecule "C[C@H]1COCCN1c1nc(-c2ccc(NC(=O)NCCO)cc2)nc2c1CN(C)C2"
A) 1 to 10 µM

Q) Please give the documented IC50 of "C[C@H]1COCCN1c1nc(-c2ccc(NC(=O)Nc3cccc(O)n3)cc2)nc2c1CN(C)C2"
A) 1 to 10 µM

Q) Note IC50 for the molecule shown: "CCNC(=O)Nc1ccc(-c2nc3c(c(N4CCOC[C@@H]4C)n2)CN(C2CCN(C(=O)OC)CC2)C3)cc1F"
A) > 10 µM

Q) Entry "C[C@H]1COCCN1c1nc(-c2ccc(NC(=O)NC3CC3)cc2)nc2c1CN(CC(C)(C)C)C2" needs its IC50 filled in; supply it.
A) > 10 µM

Q) Quickly give me recorded IC50 for "CCOC(=O)N1Cc2nc(-c3ccc(NC(=O)NCC(N)=O)cc3)nc(N3CCOC[C@@H]3C)c2C1"
A) 1 to 10 µM

Q) For the molecule "C[C@H]1COCCN1c1nc(-c2ccc(NC(=O)NC3CC3)cc2)nc2c1CCN(C(=O)C(C)(C)C)C2" , give its reported IC50.
A) > 10 µM

Q) Supply measured IC50 of "CCOC(=O)N1Cc2nc(-c3ccc(NC(=O)NC4CC4)c(F)c3)nc(N3CCOC[C@@H]3C)c2C1" in your reply.
A) > 10 µM

Q) Recall and state the measured IC50 for "CC(=O)N1CCc2c(nc(-c3ccc(NC(=O)NC4CC4)cc3)nc2N2CCOC[C@@H]2C)C1" .
A) > 10 µM

Q) Please report the measured IC50 for "C[C@H]1COCCN1c1nc(-c2ccc(NC(N)=O)cc2)nc2c1CNC2"
A) 1 to 10 µM

Q) Identify measured IC50 corresponding to "CCNC(=O)Nc1ccc(-c2nc3c(c(N4CCOC[C@@H]4C)n2)CCN(C(=O)OCC)C3)cc1"
A) > 10 µM

Q) Given the molecule "C[C@H]1COCCN1c1nc(-c2ccc(NC(=O)NC3CC3)cc2)nc2c1CCN(CC1CC1)C2" , write its reported IC50.
A) 1 to 10 µM

Q) Please indicate IC50 recorded for "CC(=O)N(C)CCC(=O)N1Cc2nc(-c3ccc(NC(=O)NC4CC4)cc3)nc(N3CCOC[C@@H]3C)c2C1"
A) 1 to 10 µM

Q) Provide measured IC50 value, entry: "CCNC(=O)Nc1ccc(-c2nc3c(c(N4CCOC[C@@H]4C)n2)CN(CC(C)C)C3)cc1"
A) > 10 µM

Q) Quick one: give measured IC50 for "CCNC(=O)Nc1ccc(-c2nc3c(c(N4CCOCC4)n2)CN(C)C3)cc1"
A) 1 to 10 µM

Q) Supply measured IC50 of "CCNC(=O)Nc1cc(F)c(-c2nc3c(c(N4CCOC[C@@H]4C)n2)CCN(C)C3)cc1F" in your reply.
A) > 10 µM

----------
molecular target: DNA-dependent protein kinase (DNA-PK) (Homo sapiens, UniProt P78527); construct: endogenous in cells; host or cells: Jurkat, clone E6-1 (ATCC TIB-152) cell lysate; assay: kinobeads assay, DNA-PK; assay type: binding; details: Further Kinobeads Data; read-out: DNAPK
experimental.endpoint: IC50

See these solved cases before continuing.
Q) Determine its reported IC50: "CCNC(=O)Nc1ccc(-c2nc3c(c(N4CCOC[C@@H]4C)n2)CN(C(=O)OC(C)(C)C)C3)c(F)c1"
A) > 10 µM

Q) Please give measured IC50 of the following entry: "C[C@@H]1COCCN1c1nc(-c2ccc(NC(=O)NC3CC3)cc2F)nc2c1CN(C(=O)OC(C)(C)C)C2"
A) 1 to 10 µM

Q) Supply recorded IC50 for "CCNC(=O)Nc1ccc(-c2nc3c(c(N4CCOC[C@@H]4C)n2)CCNC3)c(F)c1" here.
A) > 10 µM

// next item, IC50 requested
Q) Read the entry "COC(=O)N1Cc2nc(-c3ccc(NC(=O)NC4CC4)cc3F)nc(N3CCOCC3)c2C1" and write its reported IC50.
A) > 10 µM

----------
target: PI3 Kgamma (PI3 Kg) (Homo sapiens, UniProt P48736); construct: endogenous in cells; host or cells: cell lysate; test: kinobeads assay, PI3Kgamma; type: binding; settings: Further Kinobeads Data; read-out: PI3Kg
Sequence (P48736 whole entry): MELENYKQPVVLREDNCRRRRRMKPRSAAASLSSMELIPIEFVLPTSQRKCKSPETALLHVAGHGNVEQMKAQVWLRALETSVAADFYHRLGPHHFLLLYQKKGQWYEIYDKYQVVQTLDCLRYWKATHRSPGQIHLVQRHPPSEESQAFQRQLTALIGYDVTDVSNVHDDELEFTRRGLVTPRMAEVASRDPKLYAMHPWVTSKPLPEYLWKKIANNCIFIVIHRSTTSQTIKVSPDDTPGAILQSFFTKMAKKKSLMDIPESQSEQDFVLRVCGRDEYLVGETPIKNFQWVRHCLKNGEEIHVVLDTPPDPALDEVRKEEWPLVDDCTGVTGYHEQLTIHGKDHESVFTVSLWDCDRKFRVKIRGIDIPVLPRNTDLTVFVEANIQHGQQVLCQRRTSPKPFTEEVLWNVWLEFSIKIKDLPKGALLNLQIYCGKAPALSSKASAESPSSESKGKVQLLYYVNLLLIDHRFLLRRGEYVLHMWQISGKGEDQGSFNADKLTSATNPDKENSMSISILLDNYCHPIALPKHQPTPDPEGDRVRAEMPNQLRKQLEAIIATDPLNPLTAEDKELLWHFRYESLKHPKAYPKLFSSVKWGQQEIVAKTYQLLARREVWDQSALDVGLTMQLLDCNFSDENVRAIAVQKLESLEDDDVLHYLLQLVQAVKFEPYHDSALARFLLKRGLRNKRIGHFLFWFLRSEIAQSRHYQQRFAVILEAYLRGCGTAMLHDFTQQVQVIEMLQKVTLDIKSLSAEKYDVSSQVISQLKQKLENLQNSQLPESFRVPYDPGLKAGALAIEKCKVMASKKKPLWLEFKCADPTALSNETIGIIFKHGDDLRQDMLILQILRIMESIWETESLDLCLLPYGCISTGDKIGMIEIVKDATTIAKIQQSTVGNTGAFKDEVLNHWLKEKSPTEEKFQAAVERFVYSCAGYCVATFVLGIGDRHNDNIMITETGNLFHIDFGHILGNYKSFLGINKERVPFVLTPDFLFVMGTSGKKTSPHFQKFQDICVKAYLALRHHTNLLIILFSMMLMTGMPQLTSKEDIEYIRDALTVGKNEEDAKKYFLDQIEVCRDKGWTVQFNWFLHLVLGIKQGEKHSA
experimental.endpoint: IC50

Worked examples follow.
Q) Specify measured IC50 for "CC(C)N1Cc2nc(-c3ccc(NC(=O)NC4CC4)cc3F)nc(N3CCOC[C@@H]3C)c2C1" .
A) 1 to 10 µM

Q) Tell us which IC50 value is on record for Cl.O=C(Nc1ccc(-c2nc3c(c(N4CCOCC4)n2)CNC3)c(F)c1)NC1CC1 [Example 148, hydrochloride]
A) > 10 µM

Q) Provide IC50 value for the following compound: "CCNC(=O)Nc1ccc(-c2nc3c(c(N4CCOC[C@@H]4C)n2)CN(C(=O)OC)C3)c(F)c1"
A) > 10 µM

Q) State its IC50: "CCNC(=O)Nc1cc(F)c(-c2nc3c(c(N4CCOC[C@@H]4C)n2)CN(C(=O)OCC)C3)c(F)c1"
A) > 10 µM

Q) Specify measured IC50 for "CC(=O)N1Cc2nc(-c3ccc(NC(=O)NC4CC4)cc3F)nc(N3CCOC[C@@H]3C)c2C1" .
A) > 10 µM

Q) Please supply the value of reported IC50 for the item "CCNC(=O)Nc1ccc(-c2nc3c(c(N4CCOC[C@@H]4C)n2)CCN(C(=O)N(C)C)C3)c(F)c1"
A) 1 to 10 µM

Proceeding to the next compound to report its IC50.
Q) Return the recorded IC50 value; entry: "CCNC(=O)Nc1ccc(-c2nc3c(c(N4CCOC[C@@H]4C)n2)CN(C)C3)c(F)c1"
A) > 10 µM
